Target: PDE10A (human) (Homo sapiens, UniProt Q9Y233)
Sequence (Q9Y233 whole entry): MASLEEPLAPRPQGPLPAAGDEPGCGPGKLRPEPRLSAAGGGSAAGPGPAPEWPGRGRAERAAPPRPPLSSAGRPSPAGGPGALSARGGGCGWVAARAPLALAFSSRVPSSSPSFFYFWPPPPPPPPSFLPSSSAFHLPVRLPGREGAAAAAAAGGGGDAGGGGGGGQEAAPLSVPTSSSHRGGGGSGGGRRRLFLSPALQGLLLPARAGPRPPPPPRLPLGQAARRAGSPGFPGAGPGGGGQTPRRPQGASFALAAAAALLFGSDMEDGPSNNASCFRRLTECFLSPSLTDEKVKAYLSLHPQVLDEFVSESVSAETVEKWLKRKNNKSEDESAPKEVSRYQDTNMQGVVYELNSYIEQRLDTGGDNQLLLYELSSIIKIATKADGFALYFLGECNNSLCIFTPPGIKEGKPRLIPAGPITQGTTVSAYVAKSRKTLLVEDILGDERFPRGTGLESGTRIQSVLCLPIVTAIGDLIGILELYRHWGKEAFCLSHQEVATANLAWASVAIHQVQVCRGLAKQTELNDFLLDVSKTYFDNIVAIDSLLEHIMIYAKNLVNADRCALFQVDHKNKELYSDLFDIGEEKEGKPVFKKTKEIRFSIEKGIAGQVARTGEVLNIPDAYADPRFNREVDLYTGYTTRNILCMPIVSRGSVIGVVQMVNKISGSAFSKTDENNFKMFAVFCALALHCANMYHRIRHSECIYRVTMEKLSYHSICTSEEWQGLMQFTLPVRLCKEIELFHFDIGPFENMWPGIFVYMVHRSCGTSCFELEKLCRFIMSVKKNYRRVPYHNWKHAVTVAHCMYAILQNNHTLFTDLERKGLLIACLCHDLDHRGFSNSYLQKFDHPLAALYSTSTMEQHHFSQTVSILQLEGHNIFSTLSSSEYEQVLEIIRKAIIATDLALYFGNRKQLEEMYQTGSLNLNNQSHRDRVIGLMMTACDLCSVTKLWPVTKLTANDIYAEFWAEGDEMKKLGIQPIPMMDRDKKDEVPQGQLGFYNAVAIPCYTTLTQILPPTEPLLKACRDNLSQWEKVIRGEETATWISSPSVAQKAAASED
Counter-ions that a name gives are not always drawn.
METRIC_NAME: IC50

As a guide, the following entries are already answered.
COMPOUND	IC50
O=C1c2c(cccc2-c2cn[nH]c2)CN1CCc1cn2ccccc2n1	100 to 200 nM
NCc1ccc(-c2cccc3c2C(=O)N(CCc2ccc4ccccc4n2)C3)cc1	100 to 200 nM
O=C1c2c(-c3ccncc3)ccnc2CN1CCc1nc2ccc(Cl)cc2s1	< 100 nM
O=C1c2c(cccc2-c2ccc(F)cc2)CN1CCc1ccc2ccccc2n1	< 100 nM
COc1ccc(-c2ccncc2)c2c1C(=O)N(CCc1nc3ccccc3s1)C2	< 100 nM
COc1cnccc1-c1cccc2c1C(=O)N(CCc1ccc3ccccc3n1)C2 [Example 169, trifluoroacetate]	100 to 200 nM
O=C1c2c(cccc2-c2ccc3occc3c2)CN1CCc1ccc2ccccc2n1	200 to 500 nM
O=C1c2c(-c3ccncc3)ccnc2CN1CCc1cn2ccsc2n1 [compound 423, trifluoroacetate]	< 100 nM
COc1ccc(-c2cccc3c2CN(CCc2ccc4ccccc4n2)C3=O)cc1 [Example 203, trifluoroacetate]	< 100 nM

Query: Find the recorded IC50 belonging to Cc1ccc(CCN2Cc3nccc(-c4ccncc4)c3C2=O)nc1C [compound 474, trifluoroacetate] and report it.
Result: 100 to 200 nM

====

Experiment: Determination of the microsomal half-life, human liver microsomes
Conditions: human, liver microsomes, pH 7.4
Counter-ions that a name gives are not always drawn.
METRIC_NAME: microsomal CLint at 0.5 μM

COMPOUND	RESULT
O=C1c2c(-c3cn[nH]c3)ccnc2CN1CCc1nc2ccccc2s1 [compound 538, trifluoroacetate]	< 100 µL/min/mg
O=C1c2c(-c3cccnc3)ccc(F)c2CN1CCc1cn2ccccc2n1 [Example 378]	100 to 220 µL/min/mg
Cc1nc(CCN2Cc3nccc(-c4ccncc4)c3C2=O)sc1C [compound 408]	< 100 µL/min/mg

Query: Need microsomal CLint at 0.5 μM, item O=C1c2c(cccc2N2CCCOCC2)CN1CCc1ccc2ccccc2n1 [Example 110, hydrochloride]
Result: > 220 µL/min/mg

Query: # query: microsomal CLint at 0.5 μM of entry O=C1c2c(cccc2N2C[C@H]3CCCNC[C@H]3C2)CN1CCc1ccc2ccccc2n1 [Example 318, trifluoroacetate]
Result: 100 to 220 µL/min/mg

Query: Entry CCc1csc(CCN2Cc3nccc(N4CCOCC4)c3C2=O)n1 [compound 516] has what microsomal CLint at 0.5 μM?
Result: < 100 µL/min/mg

Query: # query: microsomal CLint at 0.5 μM of entry COc1ccc(N2CCN(C)CC2)c2c1CN(CCc1ccc3ccccc3n1)C2=O [Example 261, di-trifluoroacetate]
Result: < 100 µL/min/mg

Query: Reported microsomal CLint at 0.5 μM for O=C1c2c(C3CCOCC3)ccnc2CN1CCc1ccc2ccccc2n1 [Example 297] : what is it?
Result: 100 to 220 µL/min/mg

====

Reported microsomal CLint at 0.5 μM values are given for each entry in this list.
Test: Determination of the microsomal half-life, rat liver microsomes
Details: rat, liver microsomes, pH 7.4
Where a name gives a salt, the structure may show the parent alone.

COMPOUND	METRIC_NAME	RESULT
O=C1c2c(N3CCOCC3)ccnc2CN1CCc1nc2ccccc2s1 [Example 377]	microsomal CLint at 0.5 μM	< 100 µL/min/mg
[2H]c1nc2c(c(N3CCOCC3)c1[2H])C(=O)N(CC([2H])([2H])c1nc3c([2H])c([2H])c([2H])c([2H])c3c([2H])c1[2H])C2([2H])[2H] [compound 513]	microsomal CLint at 0.5 μM	> 220 µL/min/mg
O=C1c2nccc(-c3cccnc3)c2CN1CCc1ccc2ccccc2n1 [compound 463, trifluoroacetate]	microsomal CLint at 0.5 μM	< 100 µL/min/mg
O=C1c2c(-c3ccncc3)ccc(F)c2CN1CCc1cn2ccccc2n1 [Example 280]	microsomal CLint at 0.5 μM	100 to 220 µL/min/mg
COc1ccc(-c2cccnc2)c2c1C(=O)N(CCc1cn3ccccc3n1)C2 [compound 456, trifluoroacetate]	microsomal CLint at 0.5 μM	100 to 220 µL/min/mg
O=C1c2c(cccc2N2CCS(=O)(=O)CC2)CN1CCc1cn2ccccc2n1 [Example 234]	microsomal CLint at 0.5 μM	< 100 µL/min/mg
Cc1ncccc1-c1cccc2c1C(=O)N(CCc1ccc3ccccc3n1)C2 [Example 86]	microsomal CLint at 0.5 μM	> 220 µL/min/mg
O=C1c2c(N3CCOCC3)ccnc2CN1CCc1cc2ccccc2o1 [compound 397]	microsomal CLint at 0.5 μM	100 to 220 µL/min/mg

Query: Name the recorded microsomal CLint at 0.5 μM for O=C1c2c(N3CCOCC3)ccc(F)c2CN1CCc1cn2ccccc2n1 [Example 295] .
Result: < 100 µL/min/mg

Query: Please look up its microsomal CLint at 0.5 μM: O=C1Cc2ccc(-c3ccnc4c3C(=O)N(CCc3ccc5ccccc5n3)C4)cc2N1 [Example 165]
Result: < 100 µL/min/mg

Query: Fill in the blank: the reported microsomal CLint at 0.5 μM of O=C1c2c(cccc2N2CC[C@@H]3NCC[C@@H]3C2)CN1CCc1ccc2ccccc2n1 [Example 220, trifluoroacetate] is ____.
Result: > 220 µL/min/mg

Query: Name the recorded microsomal CLint at 0.5 μM for COc1ccc(-c2ccc(F)c3c2C(=O)N(CCc2cn4ccccc4n2)C3)cc1 [Example 380] .
Result: > 220 µL/min/mg

Query: Tell me the measured microsomal CLint at 0.5 μM of COc1ccc(-c2cn[nH]c2)c2c1CN(CCc1ccc3ccccc3n1)C2=O [Example 180] , please.
Result: > 220 µL/min/mg

Query: Could you tell me which microsomal CLint at 0.5 μM is on file for O=C1c2c(N3CCOCC3)ccnc2CN1CCc1nc2ccccc2o1 [compound 417] ?
Result: < 100 µL/min/mg

Query: // returns reported microsomal CLint at 0.5 μM for input O=C1c2c(N3CCC(O)CC3)ccnc2CN1CCc1ccc2ccccc2n1 [compound 530, trifluoroacetate]
Result: 100 to 220 µL/min/mg

Query: Which microsomal CLint at 0.5 μM reading was recorded for the compound Cn1c(CCN2Cc3nccc(-c4ccncc4)c3C2=O)nc2ccccc21 [Example 367] ?
Result: < 100 µL/min/mg

Query: Fill in the blank: the reported microsomal CLint at 0.5 μM of Cc1cnc(CCN2Cc3nccc(N4CCOCC4)c3C2=O)cc1C [compound 520] is ____.
Result: 100 to 220 µL/min/mg

Query: Requested field: microsomal CLint at 0.5 μM. Item: O=C1c2c(cccc2OCc2ccncc2)CN1CCc1ccc2ccccc2n1 [Example 128]
Result: 100 to 220 µL/min/mg

Query: I'd like to know its microsomal CLint at 0.5 μM. The compound in question is Cc1cnc(CCN2Cc3nccc(N4CCOCC4)c3C2=O)c(C)c1 [compound 489]
Result: 100 to 220 µL/min/mg

Query: Data request, read-out microsomal CLint at 0.5 μM, for O=C1c2c(cccc2N2CCOCC2)CN1CCc1nc2ccccc2s1 [Example 263, trifluoroacetate]
Result: < 100 µL/min/mg
